System: Escherichia coli
MEASUREMENT PROTOCOL: Antibacterial activity against Escherichia coli at 0.5% (w/v) concentration by after 24 hrs by disc diffusion method
Type: functional
Readings of inhibition zone (IZ) for the listed compounds
OBSERVABLE: inhibition zone (IZ)

- Cc1ccc2c(Cl)c(C=O)c(/C=C/O)nc2c1: 2 mm
- Clc1ccc2nc3c(c(Cl)c2c1)C=NNC=C3: 11 mm
- Cc1cccc2c(Cl)c3c(nc12)C=CNN=C3: 6 mm
- Clc1c2c(nc3ccccc13)C=CNN=C2: 4 mm
- O=Cc1c(/C=C/O)nc2ccc(Cl)cc2c1Cl: 8 mm
- Cc1ccc(C)c2c(Cl)c3c(nc12)C=CNN=C3: 9 mm
- CN[C@@H]1[C@H](O[C@H]2[C@H](O[C@H]3[C@H](O)[C@@H](O)[C@H](N=C(N)N)[C@@H](O)[C@@H]3N=C(N)N)O[C@@H](C)[C@]2(O)C=O)O[C@@H](CO)[C@H](O)[C@H]1O (stereo in doubt): 15 mm
- Cc1ccc(C)c2c(Cl)c(C=O)c(/C=C/O)nc12: 9 mm
- Cc1ccc2c(Cl)c3c(nc2c1)C=CNN=C3: 5 mm

* * *

Tested on: Aspergillus flavus
MEASUREMENT PROTOCOL: Antifungal activity against Aspergillus flavus at 1% (w/v) concentration by disc diffusion method
Format: functional
Could you label it label 1 if measured inhibition zone (IZ) is 7 mm or higher, and label 0 otherwise?

• Cc1ccc(C)c2c(Cl)c3c(nc12)C=CNN=C3 = label 1
• Clc1ccc2nc3c(c(Cl)c2c1)C=NNC=C3 = label 1
• O=Cc1c(/C=C/O)nc2ccc(Cl)cc2c1Cl = label 0
• Cc1cccc2c(Cl)c(C=O)c(/C=C/O)nc12 = label 0
• O=Cc1c(/C=C/O)nc2ccccc2c1Cl = label 0
• Clc1c2c(nc3ccccc13)C=CNN=C2 = label 0
• COC(=O)Nc1nc2ccccc2[nH]1 [CARBENDAZIM] = label 1
• Cc1ccc2c(Cl)c(C=O)c(/C=C/O)nc2c1 = label 0
• Cc1cccc2c(Cl)c3c(nc12)C=CNN=C3 = label 0

* * *

Readings of inhibition zone (IZ) for the listed molecules
System: Fusarium oxysporum
MEASUREMENT PROTOCOL: Antifungal activity against Fusarium oxysporum at 2% (w/v) concentration by disc diffusion method
Format: functional
OBSERVABLE: inhibition zone (IZ) (mm)

- Clc1ccc2nc3c(c(Cl)c2c1)C=NNC=C3: 13
- Cc1ccc(C)c2c(Cl)c(C=O)c(/C=C/O)nc12: 12
- Cc1ccc2c(Cl)c3c(nc2c1)C=CNN=C3: 11
- Cc1cccc2c(Cl)c3c(nc12)C=CNN=C3: 10
- Cc1cccc2c(Cl)c(C=O)c(/C=C/O)nc12: 7
